Just for reference, the supplement of paper PMC10567573 is where these values come from.

Let's look at some sequences and their measured protein stability index.
assay: protein stability index of a GFP-peptide fusion (GPS, HEK-293T) (PSI 1-6); higher = more stable; conditions: treatment: MLN4924 1 uM, 8 h; c terminus: a fixed tail appended;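 note: 24-mer peptide tiles fused after GFP, lentivirally expressed, FACS-sorted into six equal bins by GFP/DsRed ratio, decoded by Illumina sequencing, PSI is the read-weighted mean bin number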

# Biosequence, protein stability index
measured = [
    ("GCMLIELALRGRLQLEACGMRRKS [GOLPH3]", 2.25),
    ("RVKFKSQQHRQGRSHHLEMVIQLL [PTGFR]", 2.21),
    ("EALYAQDPSTGCYMYYFQYLSKTY [KMT5A]", 2.42),
    ("PGHGGIMDRFDCQYLMATFVHVYI [CDS1]", 3.1),
    ("VSQHWATWALYNLVSVYPDKYCPL [ZER1]", 2.74),
    ("VVIDKHPVRFFVHKRPHVDFFLEV [CTDNEP1]", 3.06),
    ("GDPLNCHSYLSGYISLLLRAEPYP [NR2F2]", 2.71),
]

###

assay: protein stability index of a GFP-peptide fusion (GPS, HEK-293T) (PSI 1-6); higher = more stable; conditions: treatment: MLN4924 1 uM, 8 h; c terminus: a fixed tail appended
Let's look at some sequences and their measured protein stability index.

# Biosequence, protein stability index
records = [
    ("MSALGSPVRAYDFLLKFLLVGDSD [RAB40B]", 2.13),
    ("RETVLIETQLKACASFIRTRLLLQ [C8orf76]", 2.9),
    ("GGVMYISGGITHDTFQKELMCFDP [KLHL13]", 2.33),
    ("RKLSPTEPKNYGSYSTQASAAAAT [SCAMP3]", 4.38),
    ("RALRKMVSNMSGPSGEEEAKVGPG [CBY2]", 4.87),
    ("DTTRQVQRISCFQSTVKCLTVLQR [WDR41]", 2.63),
    ("YSAAALQEAMKRLRGAKAFRLPGL [FCHO1]", 2.42),
    ("ETQLKACASFIRTRLLLQFTQPQQ [C8orf76]", 2.86),
    ("KLILGMPTYGRSFTLASSSDTRVG [CHIT1]", 2.46),
    ("CLSCRLFYFKLTDLYKKVKKNSSP [CRY1]", 2.08),
    ("HTEASAQRSHMGKLKEPQPQDHKP", 5.24),
    ("DEMLSYLPGGTTGLQLPSTLPVSG [TFE3]", 4.15),
    ("HLVQHQRIHSGEKPYECNECGKAF [ZNF232]", 3.8),
    ("DKVSDGVTKSPEKRSSLPRPSSIL [MAP2]", 4.99),
    ("LIETYTGLMSFIGNRNKLGYSLAR [TPRG1]", 2.21),
    ("HVEVARLLLENGAGINTHSNEFKE [ANKRD17]", 3.39),
    ("EISEAFTSTGFDRHTSPVFSPANP [BCL2L13]", 3.99),
    ("LPHPGLQVATSPDFDGKLKDIAGE [ATL3]", 5.11),
    ("GGMLNFMMHDQRTGPAWNVLMWTM [SOAT2]", 2.07),
    ("ASEYCPGKLSWGTMARALGRFKLS [WDR88]", 2.67),
    ("MENIGAIQVLPKLSSSIIHEIDSI [KCNAB2]", 3.51),
    ("KVPREKDEPGKGGFWRIDPQYAER [FOXJ1]", 4.2),
    ("RKQILLRGKLKKTEEELRRIQTQK [ZC2HC1C]", 4.2),
    ("STRPEEGCSLHEEDTQRHETYHQQ [TCAP]", 5.47),
    ("QLQELLHHCDDHLSLYQLSLERGT [RSAD1]", 2.58),
    ("DFWLMVWEQKVLVIVMTTRFEEGG [PTPN9]", 2.58),
    ("RDSTARRPRPQGRSVSEPRDQHPQ [RTN2]", 5.23),
]
